protocol details: LDH cytotoxic activity assay, HeLa
Assay type: cell-based
measurement setup: human, HeLa cells, 25 μg/mL
# label = true (1) if cytotoxicity at 24 h, 25 μg/mL >= 20% else false (0)

For orientation, consider the following solved cases.
Cc1ccccc1-c1cc(-c2ccccn2)nc(N[C@@H]2O[C@H](CO)[C@@H](O)[C@H](O)[C@H]2O)n1 = true (1)
CC(=O)OC[C@H]1O[C@@H](Nc2nc(-c3ccc(C)cc3)cc(-c3cccnc3)n2)[C@H](OC(C)=O)[C@@H](OC(C)=O)[C@@H]1OC(C)=O = false (0)

Input: Determine whether this compound has cytotoxicity at 24 h, 25 μg/mL no lower than 20%: CC(=O)OC[C@H]1O[C@@H](Nc2nc(-c3ccncc3)cc(-c3ccc(C)cc3)n2)[C@H](OC(C)=O)[C@@H](OC(C)=O)[C@@H]1OC(C)=O
Output: false (0)

Input: // same read-out, input: Cc1cccc(-c2cc(-c3ccncc3)nc(N[C@@H]3O[C@H](CO)[C@@H](O)[C@H](O)[C@H]3O)n2)c1
Output: false (0)

* * *

protocol details: LDH cytotoxic activity assay, C6
Assay type: cell-based
measurement setup: rat, C6 glioma cells, C6, 75 μg/mL
Rule: measured cytotoxicity at 24 h, 75 μg/mL below 70% gets Y; anything equal to or greater than 70% gets N.

For orientation, consider the following solved cases.
CC(=O)OC[C@H]1O[C@@H](Nc2nc(-c3cccnc3)cc(-c3ccccc3C)n2)[C@H](OC(C)=O)[C@@H](OC(C)=O)[C@@H]1OC(C)=O = N
CC(=O)OC[C@H]1O[C@@H](Nc2nc(-c3cccc(C)c3)cc(-c3ccccn3)n2)[C@H](OC(C)=O)[C@@H](OC(C)=O)[C@@H]1OC(C)=O = N
Cc1ccc(-c2cc(-c3cccnc3)nc(N[C@@H]3O[C@H](CO)[C@@H](O)[C@H](O)[C@H]3O)n2)cc1 = Y

Next item in the queue.
Input: # check: cytotoxicity at 24 h, 75 μg/mL < 70% for Cc1ccccc1-c1cc(-c2ccncc2)nc(N[C@@H]2O[C@H](CO)[C@@H](O)[C@H](O)[C@H]2O)n1
Output: N

* * *

protocol details: LDH cytotoxic activity assay, C6
Assay type: cell-based
measurement setup: rat, C6 glioma cells, C6, 25 μg/mL
parameter: cytotoxicity at 24 h, 25 μg/mL
Write the numeric value and append its unit.

Some molecules with known cytotoxicity at 24 h, 25 μg/mL results, for comparison:
CC(=O)OC[C@H]1O[C@@H](Nc2nc(-c3cccc(C)c3)cc(-c3ccccn3)n2)[C@H](OC(C)=O)[C@@H](OC(C)=O)[C@@H]1OC(C)=O = 15%
CC(=O)OC[C@H]1O[C@@H](Nc2nc(-c3ccc(C)cc3)cc(-c3ccccn3)n2)[C@H](OC(C)=O)[C@@H](OC(C)=O)[C@@H]1OC(C)=O = 17.1%

Let's switch to this molecule now.
Input: May I ask what cytotoxicity at 24 h, 25 μg/mL has been recorded for CC(=O)OC[C@H]1O[C@@H](Nc2nc(-c3ccccn3)cc(-c3ccccc3C)n2)[C@H](OC(C)=O)[C@@H](OC(C)=O)[C@@H]1OC(C)=O ?
Output: 22.8%

* * *

protocol details: LDH cytotoxic activity assay, C6
Type: cell-based
measurement setup: rat, C6 glioma cells, C6, 100 μg/mL
Rule: measured cytotoxicity at 24 h, 100 μg/mL below 90% gets label 1; anything equal to or greater than 90% gets label 0.

For orientation, consider the following solved cases.
CC(=O)OC[C@H]1O[C@@H](Nc2nc(-c3ccc(C)cc3)cc(-c3cccnc3)n2)[C@H](OC(C)=O)[C@@H](OC(C)=O)[C@@H]1OC(C)=O [Compound 17] = label 1
Cc1ccccc1-c1cc(-c2cccnc2)nc(N[C@@H]2O[C@H](CO)[C@@H](O)[C@H](O)[C@H]2O)n1 [Compound 2] = label 0
CC(=O)OC[C@H]1O[C@@H](Nc2nc(-c3cccnc3)cc(-c3ccccc3C)n2)[C@H](OC(C)=O)[C@@H](OC(C)=O)[C@@H]1OC(C)=O [Compound 11] = label 1
Cc1cccc(-c2cc(-c3cccnc3)nc(N[C@@H]3O[C@H](CO)[C@@H](O)[C@H](O)[C@H]3O)n2)c1 [Compound 5] = label 1
Cc1ccccc1-c1cc(-c2ccncc2)nc(N[C@@H]2O[C@H](CO)[C@@H](O)[C@H](O)[C@H]2O)n1 [Compound 3] = label 0

Input: # check: cytotoxicity at 24 h, 100 μg/mL < 90% for CC(=O)OC[C@H]1O[C@@H](Nc2nc(-c3cccnc3)cc(-c3cccc(C)c3)n2)[C@H](OC(C)=O)[C@@H](OC(C)=O)[C@@H]1OC(C)=O [Compound 14]
Output: label 1
